Origin of the recorded values: the supplement of paper PMC10065799

- System: AncSZ;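 further: 11-residue human phosphosite peptides and single-mutation variants displayed on the E. coli surface, counted by deep sequencing, each peptide's frequency after selection divided by its frequency in the unselected input library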;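 further: frequency after pTyr selection over input frequency; kinase dosed for 20-30% of maximal phosphorylation in three min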
- Experiment description: phosphorylation enrichment, bacterial display (enrichment ratio); higher = better substrate or ligand; peptides without Tyr show the background
Measurement kind: phosphorylation enrichment
Quick one: just the number, no unit, thanks!

Noted for FGISGYVVDSV [MAP2K3_Y214_L215V] : its phosphorylation enrichment reads 0.775

Noted for LEVPLYKNGVK [CPS1_Y1069_A1065E] : its phosphorylation enrichment reads 1.28

Noted for TVHCDYLNIPH [TAF1L_Y1385] : its phosphorylation enrichment reads 0.959

Noted for YTGNTYRVGDT [FN1_Y106] : its phosphorylation enrichment reads 0.666

Noted for GFEEAYSVFKK [PAFAH1B1_Y28_YF] : its phosphorylation enrichment reads 0.803

Noted for QSSALYEDCYL [ASS1_Y83_R86C] : its phosphorylation enrichment reads 1.82

Noted for DPFHVYIKNHV [KCNE3_Y95_R99H_YF] : its phosphorylation enrichment reads 1.22

Noted for SVVVSYEPPEV [TP53_Y220_P219S] : its phosphorylation enrichment reads 1.23
